# binding signal listing for each entry below
- experimental.target: MBP-FoxP1dN (Mus musculus, UniProt P58462 326-579)
- Sequence: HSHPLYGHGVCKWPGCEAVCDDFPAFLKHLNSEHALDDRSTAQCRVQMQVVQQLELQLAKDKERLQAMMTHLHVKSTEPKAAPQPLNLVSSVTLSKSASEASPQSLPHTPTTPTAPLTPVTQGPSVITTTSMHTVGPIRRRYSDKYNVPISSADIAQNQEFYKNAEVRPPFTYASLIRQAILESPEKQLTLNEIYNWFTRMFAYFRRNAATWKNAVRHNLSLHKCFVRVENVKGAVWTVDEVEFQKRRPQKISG
- test.name: PD-seq (MBP pull-down with sequencing); 20 mM Tris-HCl pH 7.5, 100 mM NaCl, 1.5 mM MgCl2, 0.4 uM protein, 0.1 uM dsDNA library, 30 min, room temperature, amylose pull-down; high values mean tight binding
- experimental.context: protein: recombinant; tags: His6-MBP; chain copies: 2; dsDNA, one strand shown
Whole data set: some 16,000 sequences, median “rpm ratio (pull-down/input)” near 0.94, cut for the highest 2% near 1.7. This is one part of a sample in which the highest values are shown more often than they occur.

Illustrative cases are given below, each with its answer.
> print(dat)
                        biopolymer.sequence                       assay.value
1  GATGATTGTTCTCCCAGCTGATGAATTGATTACATCGAGTAAACAAATTTTCCTAATCTTTCTGTTCAAGCGCCATCTAC  1.58 RPM ratio (pull-down/input)
2  GATGATTGTTCTCCCAGCTGATGAATTACCAAAATCGAGTAAACAAATTTTCCTAATCTTTCTGTTCAAGCGCCATCTAC   1.3 RPM ratio (pull-down/input)
3  GATGATTGTTCTCCCAGCTGATGAATTTACCAAATCGAGTAAACAAATTTTCCTAATCTTTCTGTTCAAGCGCCATCTAC  1.65 RPM ratio (pull-down/input)

Let us examine a further case.
Problem: Which binding signal value belongs to GATGATTGTTCTCCCAGCTGATGAATTACTAACATCGAGTAAACAAATTTTCCTAATCTTTCTGTTCAAGCGCCATCTAC ?
Solution: 1.77 RPM ratio (pull-down/input)

###

- experimental.target: MBP-FoxP1dN (Mus musculus, UniProt P58462 326-579)
- Sequence: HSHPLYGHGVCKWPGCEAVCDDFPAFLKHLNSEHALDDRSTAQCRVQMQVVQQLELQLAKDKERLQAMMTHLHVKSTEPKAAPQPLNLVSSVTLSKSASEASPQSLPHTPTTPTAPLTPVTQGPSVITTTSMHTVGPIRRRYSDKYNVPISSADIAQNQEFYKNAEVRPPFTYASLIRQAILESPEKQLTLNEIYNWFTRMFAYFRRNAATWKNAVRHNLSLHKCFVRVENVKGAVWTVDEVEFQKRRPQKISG
- test.name: PD-seq (MBP pull-down with sequencing); 20 mM Tris-HCl pH 7.5, 100 mM NaCl, 1.5 mM MgCl2, 0.4 uM protein, 0.1 uM dsDNA library, 30 min, room temperature, amylose pull-down; high values mean tight binding
- experimental.context: protein: recombinant; tags: His6-MBP; chain copies: 2; dsDNA, one strand shown
In all, about 16,000 sequences were measured (“rpm ratio (pull-down/input)”: median about 0.94, highest 2% from about 1.7 on). This excerpt belongs to a sample that is enriched for the highest values.
measured.quantity: binding signal

> print(dat)
                        biopolymer.sequence  measured.quantity                        assay.value
1  GATGATTGTTCTCCCAGCTGATGAATTTGACTATTCGAGTAAACAAATTTTCCTAATCTTTCTGTTCAAGCGCCATCTAC     binding signal  0.903 RPM ratio (pull-down/input)
2  GATGATTGTTCTCCCAGCTGATGAATTCCAAGCGTCGAGTAAACAAATTTTCCTAATCTTTCTGTTCAAGCGCCATCTAC     binding signal  0.867 RPM ratio (pull-down/input)
3  GATGATTGTTCTCCCAGCTGATGAATTGACCTTCTCGAGTAAACAAATTTTCCTAATCTTTCTGTTCAAGCGCCATCTAC     binding signal  0.921 RPM ratio (pull-down/input)
4  GATGATTGTTCTCCCAGCTGATGAATTTTTGCTGTCGAGTAAACAAATTTTCCTAATCTTTCTGTTCAAGCGCCATCTAC     binding signal   1.59 RPM ratio (pull-down/input)
5  GATGATTGTTCTCCCAGCTGATGAATTAACAGACTCGAGTAAACAAATTTTCCTAATCTTTCTGTTCAAGCGCCATCTAC     binding signal  0.866 RPM ratio (pull-down/input)

Problem: What measured binding signal is associated with GATGATTGTTCTCCCAGCTGATGAATTGTCAACATCGAGTAAACAAATTTTCCTAATCTTTCTGTTCAAGCGCCATCTAC on MBP-FoxP1dN (Mus musculus, UniProt P58462 326-579)?
Solution: 2.76 RPM ratio (pull-down/input)

Problem: What measured binding signal is associated with GATGATTGTTCTCCCAGCTGATGAATTACAGTGTTCGAGTAAACAAATTTTCCTAATCTTTCTGTTCAAGCGCCATCTAC on MBP-FoxP1dN (Mus musculus, UniProt P58462 326-579)?
Solution: 1.16 RPM ratio (pull-down/input)
